Target: p110γ (Homo sapiens, UniProt P48736)
Sequence (P48736 whole entry): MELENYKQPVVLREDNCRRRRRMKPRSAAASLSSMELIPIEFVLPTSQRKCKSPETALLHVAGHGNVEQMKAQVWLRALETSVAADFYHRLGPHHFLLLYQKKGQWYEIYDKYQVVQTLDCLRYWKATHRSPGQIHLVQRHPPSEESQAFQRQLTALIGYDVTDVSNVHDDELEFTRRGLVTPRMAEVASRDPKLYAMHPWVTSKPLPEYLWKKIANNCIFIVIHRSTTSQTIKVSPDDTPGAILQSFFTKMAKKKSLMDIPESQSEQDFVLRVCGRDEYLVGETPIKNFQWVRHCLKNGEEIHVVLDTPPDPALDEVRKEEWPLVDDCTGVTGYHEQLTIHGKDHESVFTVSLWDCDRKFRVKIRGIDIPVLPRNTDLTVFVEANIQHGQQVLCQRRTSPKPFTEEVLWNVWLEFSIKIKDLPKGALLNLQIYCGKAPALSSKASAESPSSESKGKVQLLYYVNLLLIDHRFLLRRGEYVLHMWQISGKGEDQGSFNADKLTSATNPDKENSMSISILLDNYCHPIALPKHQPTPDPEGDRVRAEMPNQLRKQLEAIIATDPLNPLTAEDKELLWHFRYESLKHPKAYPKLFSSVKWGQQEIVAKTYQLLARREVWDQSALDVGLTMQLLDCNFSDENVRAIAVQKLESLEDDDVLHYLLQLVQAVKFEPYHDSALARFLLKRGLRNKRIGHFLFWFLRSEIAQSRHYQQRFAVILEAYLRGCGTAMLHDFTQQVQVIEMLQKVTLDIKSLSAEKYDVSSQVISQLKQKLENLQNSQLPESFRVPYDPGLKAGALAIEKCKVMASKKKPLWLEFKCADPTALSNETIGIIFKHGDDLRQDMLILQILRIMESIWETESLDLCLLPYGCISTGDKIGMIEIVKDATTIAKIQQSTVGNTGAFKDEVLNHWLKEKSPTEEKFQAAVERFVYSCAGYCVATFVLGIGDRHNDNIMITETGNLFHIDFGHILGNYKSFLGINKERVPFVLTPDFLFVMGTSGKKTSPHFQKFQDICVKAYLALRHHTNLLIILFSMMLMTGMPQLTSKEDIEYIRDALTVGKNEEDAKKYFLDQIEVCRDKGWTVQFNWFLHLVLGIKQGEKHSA
Test: Transcreener KINASE Assay, kinase inhibition of p110γ
Format: biochemical
Conditions: 1 uM test compound
Description: Kinase Inhibition assays of p110α/p85α, p110β/p85α, p110δ/p85α and p110γ PI3K kinases including p110α/p85α, p110δ/p85α and p110γ are purchased from Invitrogen, and p110β/p85α is from Millipore. Primary screening data and IC50 values are measured using Transcreener™ KINASE Assay (Bellbrook, Catalog #3003-10K). […] The plate is sealed again and incubated for 60 min at room temperature, and then measure fluorescence polarization by Tecan Infinite F500 Reader. […]
Measured quantity: PI3Kγ IH % @ 1 uM (%)

1. O=c1c2c(Cl)ccn2nc([C@@H]2CCCN2c2ncnc3[nH]cnc23)n1CCN1CCOCC1 ... 69.0
2. C[C@H]1CN(c2ncnc(N)c2C#N)C1c1nn2ccc(Cl)c2c(=O)n1-c1ccccc1 (stereo partly drawn) ... 93.5
3. COCc1ccn2nc([C@@H]3CCCN3c3ncnc4[nH]cnc34)n(-c3ccccc3)c(=O)c12 ... 74.2
4. Cc1nc(N)nc(N2C[C@H](C)[C@H]2c2nn3ccc(C#N)c3c(=O)n2-c2ccccc2)c1C#N ... 96.0
5. CC(Nc1nc(N)nc2c1C(=O)CCN2)c1cn2ccc(Cl)c2c(=O)n1-c1ccccc1 (stereo not drawn) ... 97.8
6. Nc1nc(N2CC[C@H]2c2nn3ccc(Cl)c3c(=O)n2-c2ccccc2)c2cccn2n1 ... 91.6
7. CC(C)Cn1c([C@@H]2CCN2c2ncnc3[nH]cc(C#N)c23)nn2ccc(Cl)c2c1=O ... 89.5
8. N#Cc1cnc(N)nc1N1C[C@@H](F)C[C@H]1c1nn2ccc(Cl)c2c(=O)n1-c1ccccc1 ... 90.4
9. COc1ncc(-c2n[nH]c3ncnc(N4CC[C@H]4c4nn5ccc(Cl)c5c(=O)n4-c4ccccc4)c23)cn1 ... 79.8
10. Nc1nc2c(c(N3C[C@@H](F)C[C@H]3c3nn4ccc(F)c4c(=O)n3-c3ccccc3)n1)C(=O)CCN2 ... 95.8
11. COc1ccc(-c2c[nH]c3ncnc(N4CC[C@H]4c4nn5ccc(F)c5c(=O)n4-c4ccccc4)c23)cn1 ... 94.9
12. CC(=O)c1cnc(N)nc1NC(C)c1cc2ncc(Cl)n2c(=O)n1-c1ccccc1 (stereo not drawn) ... 95.8
13. O=C(NCCO)c1c[nH]c2ncnc(N3CC[C@H]3c3nn4ccc(Cl)c4c(=O)n3-c3ccccc3)c12 ... 93.6
14. CN(C)CCn1c([C@@H]2CCCN2c2ncnc3[nH]cnc23)nn2ccc(Cl)c2c1=O ... 56.3
15. C[C@H]1CN(c2nc(N)ncc2Cl)[C@@H]1c1nn2ccc(F)c2c(=O)n1-c1ccccc1 ... 80.6

---

biological target: p110δ/p85α (Homo sapiens, UniProt O00329); assay: Transcreener KINASE Assay, kinase inhibition of p110δ/p85α; conditions: read-out: PI3Kδ IC50
Sequence (O00329 whole entry): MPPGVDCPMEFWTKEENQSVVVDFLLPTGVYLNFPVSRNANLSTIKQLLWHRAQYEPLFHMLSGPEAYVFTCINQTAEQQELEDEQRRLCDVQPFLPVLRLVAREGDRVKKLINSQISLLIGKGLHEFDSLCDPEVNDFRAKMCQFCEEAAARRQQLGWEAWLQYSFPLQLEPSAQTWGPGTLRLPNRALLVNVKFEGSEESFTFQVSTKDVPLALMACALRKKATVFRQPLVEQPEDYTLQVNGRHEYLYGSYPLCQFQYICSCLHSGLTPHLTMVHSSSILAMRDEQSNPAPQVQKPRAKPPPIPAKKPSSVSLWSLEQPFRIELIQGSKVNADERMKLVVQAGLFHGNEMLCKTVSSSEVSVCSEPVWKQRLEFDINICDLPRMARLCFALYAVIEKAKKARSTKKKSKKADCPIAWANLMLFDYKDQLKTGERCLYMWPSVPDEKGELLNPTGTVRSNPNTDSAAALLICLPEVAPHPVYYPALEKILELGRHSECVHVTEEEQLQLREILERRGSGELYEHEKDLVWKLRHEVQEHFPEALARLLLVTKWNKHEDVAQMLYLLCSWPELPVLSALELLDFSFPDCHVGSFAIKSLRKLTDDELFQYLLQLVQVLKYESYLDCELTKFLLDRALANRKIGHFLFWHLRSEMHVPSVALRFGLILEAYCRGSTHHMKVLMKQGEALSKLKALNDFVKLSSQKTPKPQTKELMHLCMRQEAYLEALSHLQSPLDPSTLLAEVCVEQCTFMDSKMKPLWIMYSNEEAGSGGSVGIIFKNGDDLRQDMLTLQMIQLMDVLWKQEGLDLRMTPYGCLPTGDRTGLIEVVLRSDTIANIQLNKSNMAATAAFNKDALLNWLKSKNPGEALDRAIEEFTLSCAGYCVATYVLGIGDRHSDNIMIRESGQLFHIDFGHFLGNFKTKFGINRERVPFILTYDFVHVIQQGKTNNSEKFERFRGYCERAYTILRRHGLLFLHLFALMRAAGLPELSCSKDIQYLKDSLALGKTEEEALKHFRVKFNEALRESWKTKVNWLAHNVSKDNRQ
Sequence (P27986 whole entry partner): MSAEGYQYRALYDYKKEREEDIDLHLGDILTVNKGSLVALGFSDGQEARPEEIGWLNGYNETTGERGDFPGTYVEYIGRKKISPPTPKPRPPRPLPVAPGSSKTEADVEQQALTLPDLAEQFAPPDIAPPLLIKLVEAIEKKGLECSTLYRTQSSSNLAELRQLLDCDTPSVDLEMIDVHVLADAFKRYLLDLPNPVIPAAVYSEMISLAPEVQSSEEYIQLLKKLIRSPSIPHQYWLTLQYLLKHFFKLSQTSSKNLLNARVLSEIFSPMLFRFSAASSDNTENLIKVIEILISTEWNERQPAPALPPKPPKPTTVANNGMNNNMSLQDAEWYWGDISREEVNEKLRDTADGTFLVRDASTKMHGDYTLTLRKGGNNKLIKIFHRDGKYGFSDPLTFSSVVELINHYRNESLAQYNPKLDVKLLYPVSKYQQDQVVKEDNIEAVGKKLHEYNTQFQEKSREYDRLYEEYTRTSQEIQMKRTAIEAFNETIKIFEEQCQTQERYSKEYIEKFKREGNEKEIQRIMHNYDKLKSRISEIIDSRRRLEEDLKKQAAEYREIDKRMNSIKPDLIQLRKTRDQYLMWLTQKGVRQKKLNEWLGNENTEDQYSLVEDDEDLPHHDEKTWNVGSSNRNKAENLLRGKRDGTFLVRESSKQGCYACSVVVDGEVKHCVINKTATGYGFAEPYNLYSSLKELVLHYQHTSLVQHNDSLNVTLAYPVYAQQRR
pIC50: −log10 of the molar value.
Classification field: Yes = pIC50 at or over 8; No = pIC50 under 8.

1. N#Cc1c[nH]c2ncnc(N3CCC[C@H]3c3nn4ccc(Cl)c4c(=O)n3Cc3ccccc3)c12 [Compound 62] ... No
2. O=c1c2c(F)ccn2nc([C@@H]2CCCN2c2ncnc3[nH]cnc23)n1-c1ccccn1 [Compound 313] ... Yes
3. CS(=O)(=O)CCn1c([C@@H]2CCCN2c2ncnc3[nH]cnc23)nn2ccc(Cl)c2c1=O [Compound 372] ... No
4. CC(C)Cn1c([C@@H]2CCCN2c2ncnc3[nH]cc(C#N)c23)nn2ccc(Cl)c2c1=O [Compound 64] ... Yes
5. C[S+]([O-])c1c[nH]c2ncnc(N3CC[C@H]3c3nn4ccc(Cl)c4c(=O)n3-c3ccc(F)cc3)c12 (stereo partly drawn) [Compound 199] ... No
6. CC(=O)c1c[nH]c2ncnc(N[C@H](C)c3cn4ccc(F)c4c(=O)n3-c3ccccc3)c12 [Compound 405] ... Yes
7. N#Cc1cnc(N)nc1N1C[C@@H](C#N)C[C@H]1c1nn2ccc(Cl)c2c(=O)n1-c1ccccc1 [Compound 351] ... Yes
8. C[S@@+]([O-])c1c[nH]c2ncnc(N3CC[C@H]3c3nn4ccc(Cl)c4c(=O)n3-c3ccccn3)c12 [Compound 391] ... No
9. N#Cc1cnc(N)nc1N1CC(=O)C[C@H]1c1nn2ccc(F)c2c(=O)n1-c1ccccc1 [Compound 401] ... Yes
10. C[C@H]1CN(c2nc(N)ncc2Cl)[C@@H]1c1nn2ccc(F)c2c(=O)n1-c1ccccc1 [Compound 464] ... Yes
11. O=c1c2c(Cl)ccn2nc([C@@H]2CCCN2c2ncnc3[nH]ccc23)n1-c1ccccc1 [Compound 145] ... Yes
12. CO[C@H]1C[C@@H](c2nn3ccc(Cl)c3c(=O)n2-c2ccccc2)N(c2ncnc3[nH]cnc23)C1 [Compound 263] ... Yes
